Biological target: T1, B3GNT2 (Homo sapiens, UniProt Q9NY97)
T1 construct: The respective ORFs of candidate genes [CD274 (NM_014143), MCL1 (NM_021960), JUNB (NM_002229), and B3GNT2 (NM_006577)] were synthesized; expressed in transfected cells; host or cells: A375 melanoma cells (lentiviral ORF overexpression)
T1 sequence (Q9NY97 1-397): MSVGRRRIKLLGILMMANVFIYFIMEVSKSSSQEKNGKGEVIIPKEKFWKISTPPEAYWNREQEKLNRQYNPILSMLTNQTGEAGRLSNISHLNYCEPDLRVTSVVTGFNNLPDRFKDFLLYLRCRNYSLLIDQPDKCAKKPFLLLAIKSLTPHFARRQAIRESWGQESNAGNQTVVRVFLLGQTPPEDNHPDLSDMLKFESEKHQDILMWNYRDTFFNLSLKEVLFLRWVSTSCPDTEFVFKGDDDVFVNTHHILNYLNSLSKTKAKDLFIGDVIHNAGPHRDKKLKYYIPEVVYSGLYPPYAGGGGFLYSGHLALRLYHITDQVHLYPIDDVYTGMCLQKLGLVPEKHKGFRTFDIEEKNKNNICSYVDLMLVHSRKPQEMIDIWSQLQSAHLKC
Test: Co-IP of FLAG-tagged B3GNT2 followed by mass spectrometry
Type: cell-based
Settings: Co-IP followed by mass spectrometry of B3GNT2; N-term tag, FLAG pull-down
Listed below: N-term FLAG values for each entry.

molecule: TXN (protein) VKQIESKTAFQEALDAAGDKLVVVDFSATWCGPCKMIKPFFHSLSEKYSNVIFLEVDVDDCQDVASECEVKCMPTFQFFKKGQKVGEFSGANKEKLEATINELV
N-term FLAG: 3

molecule: ARG1 (protein) MSAKSRTIGIIGAPFSKGQPRGGVEEGPTVLRKAGLLEKLKEQECDVKDYGDLPFADIPNDSPFQIVKNPRSVGKASEQLAGKVAEVKKNGRISLVLGGDHSLAIGSISGHARVHPDLGVIWVDAHTDINTPLTTTSGNLHGQPVSFLLKELKGKIPDVPGFSWVTPCISAKDIVYIGLRDVDPGEHYILKTLGIKYFSMTEVDRLGIGKVMEETLSYLLGRKKRPIHLSFDVDGLDPSFTPATGTPVVGGLTYREGLYITEEIYKTGLLSGLDIMEVNPSLGKTPEEVTRTVNTAVAITLACFGLAREGNHKPIDYLNPPK
N-term FLAG: 8

molecule: NCCRP1 (protein) MEEVREGHALGGGMEADGPASLQELPPSPRSPSPPPSPPPLPSPPSLPSPAAPEAPELPEPAQPSEAHARQLLLEEWGPLSGGLELPQRLTWKLLLLRRPLYRNLLRSPNPEGINIYEPAPPTGPTQRPLETLGNFRGWYIRTEKLQQNQSWTVKQQCVDLLAEGLWEELLDDEQPAITVMDWFEDSRLDACVYELHVWLLAADRRTVIAQHHVAPRTSGRGPPGRWVQVSHVFRHYGPGVRFIHFLHKAKNRMEPGGLRRTRVTDSSVSVQLRE
N-term FLAG: 4

molecule: PSMA3 (protein) SSIGTGYDLSASTFSPDGRVFQVEYAMKAVENSSTAIGIRCKDGVVFGVEKLVLSKLYEEGSNKRLFNVDRHVGMAVAGLLADARSLADIAREEASNFRSNFGYNIPLKHLADRVAMYVHAYTLYSAVRPFGCSFMLGSYSVNDGAQLYMIDPSGVSYGYWGCAIGKARQAAKTEIEKLQMKEMTCRDIVKEVAKIIYIVHDEVKDKAFELELSWVGELTNGRHEIVPKDIREEAEKYAKESLKEEDESDDDNM
N-term FLAG: 4

molecule: SERPINB3 (protein) MNSLSEANTKFMFDLFQQFRKSKENNIFYSPISITSALGMVLLGAKDNTAQQIKKVLHFDQVTENTTGKAATYHVDRSGNVHHQFQKLLTEFNKSTDAYELKIANKLFGEKTYLFLQEYLDAIKKFYQTSVESVDFANAPEESRKKINSWVESQTNEKIKNLIPEGNIGSNTTLVLVNAIYFKGQWEKKFNKEDTKEEKFWPNKNTYKSIQMMRQYTSFHFASLEDVQAKVLEIPYKGKDLSMIVLLPNEIDGLQKLEEKLTAEKLMEWTSLQNMRETRVDLHLPRFKVEESYDLKDTLRTMGMVDIFNGDADLSGMTGSRGLVLSGVLHKAFVEVTEEGAEAAAATAVVGFGSSPTSTNEEFHCNHPFLFFIRQNKTNSILFYGRFSSP
N-term FLAG: 10

Every entry's value here was drawn from patent US20240261333A1.
